Values from ChEMBL document CHEMBL1144287

The reader will find reported MIC values listed item by item below.
test system: Pichia kudriavzevii; assay: Minimum inhibitory concentration was measured against Candida krusei ATCC 749 using modified Sabouraud dextrose broth; (a); format: functional
Measured quantity: MIC (µg/mL)

| Entry smiles | Measured quantity | Observed measurement |
| --- | --- | --- |
| Cc1nc2c([se]1)C(=O)C=C(Nc1ccc(Br)cc1)C2=O | MIC | 50 |
| Nc1nc(=O)[nH]cc1F | MIC | 50 |
| COC1=C(Sc2ccc(OC)cc2)C(=O)c2[se]c(C)nc2C1=O | MIC | 12.5 |
| COC1=C(Sc2ccc([N+](=O)[O-])cc2)C(=O)c2[se]c(C)nc2C1=O | MIC | 25 |
| Cc1ccc(NC2=CC(=O)c3[se]c(C)nc3C2=O)cc1 | MIC | 25 |
| COC1=C(Sc2ccc(F)c(F)c2)C(=O)c2[se]c(C)nc2C1=O | MIC | 6.3 |
| Cc1nc2c([se]1)C(=O)C=C(Nc1ccc(Cl)cc1)C2=O | MIC | 12.5 |
| COC1=C(Sc2ccccc2)C(=O)c2[se]c(C)nc2C1=O | MIC | 6.3 |

* * *

system: Pichia kudriavzevii; assay: Minimum inhibitory concentration was measured against Candida krusei ATCC 749 using modified Sabouraud dextrose broth; (a); assay type: functional
The reader will find reported MIC values listed item by item below.
Measured quantity: MIC (µg/mL)

| Entry smiles | Observed measurement |
| --- | --- |
| Cc1nc2c([se]1)C(=O)C=C(Nc1ccc(F)cc1)C2=O | 6.3 |
| Cc1nc2c([se]1)C(=O)C=C(Nc1cccc(F)c1)C2=O | 6.3 |
| COC1=C(Sc2ccc(F)cc2)C(=O)c2[se]c(C)nc2C1=O | 25 |
| COC1=C(Sc2ccc(Cl)cc2)C(=O)c2[se]c(C)nc2C1=O | 25 |
| COC1=C(Sc2ccc(C)cc2)C(=O)c2[se]c(C)nc2C1=O | 25 |
| Cc1nc2c([se]1)C(=O)C=C(Nc1ccccc1)C2=O | 6.3 |
| Cc1nc2c([se]1)C(=O)C=C(Nc1ccc(I)cc1)C2=O | 25 |
| Cc1nc2c([se]1)C(=O)C=C(Nc1ccc(C(F)(F)F)cc1)C2=O | 3.2 |
| COC1=CC(=O)c2[se]c(C)nc2C1=O | 25 |
| Cc1nc2c([se]1)C(=O)C=C(Nc1cc(Cl)cc(Cl)c1)C2=O | 25 |
| COc1ccc(NC2=CC(=O)c3[se]c(C)nc3C2=O)cc1 | 12.5 |
